- system_name: human LPA1 (Homo sapiens)
- Construct: the full-length cDNA for human LPA1 was obtained by PCR of the reverse transcription reaction
- Sequence (Q92633 whole entry): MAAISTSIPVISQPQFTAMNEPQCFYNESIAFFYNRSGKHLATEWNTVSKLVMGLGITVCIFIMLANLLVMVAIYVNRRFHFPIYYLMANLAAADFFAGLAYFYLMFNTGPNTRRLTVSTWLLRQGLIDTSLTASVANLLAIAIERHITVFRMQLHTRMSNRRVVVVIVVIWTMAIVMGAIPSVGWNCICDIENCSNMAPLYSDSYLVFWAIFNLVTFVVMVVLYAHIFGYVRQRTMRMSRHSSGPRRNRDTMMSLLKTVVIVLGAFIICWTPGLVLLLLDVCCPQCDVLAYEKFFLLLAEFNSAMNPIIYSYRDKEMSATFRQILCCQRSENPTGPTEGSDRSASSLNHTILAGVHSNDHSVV
- test_summary: HLPA1 Ca Flux assay (LPA1 calcium flux assay)
- measurement_setup: CHO cells stably expressing human LPA1; stimulated by 10 nM LPA; intracellular Ca2+
pIC50: −log10 of the molar value.
value_kind: pIC50

molecule	pIC50
Cc1noc(-c2ccc(C#CCn3ncc(C(=O)O)c3C(F)(F)F)cc2)c1NC(=O)OC(C)c1ccccc1Cl (stereo not shown)	< 6.00
Cc1noc(-c2ccc(C#CCn3cncn3)cc2)c1NC(=O)OC(C)c1ccccc1Cl (stereo not shown)	> 6.52
Cc1noc(-c2ccc(C#CCCCC(=O)O)cc2)c1NC(=O)OC(C)c1ccccc1Cl (stereo not shown)	> 6.52

Annotate the molecule Cc1noc(-c2ccc(C#CCn3cnc(C(=O)O)c3)cc2)c1NC(=O)OC(C)c1ccccc1Cl (stereo not shown) with its measured pIC50.
> 6.52
